meta.source: paper PMC6003574

target: CD19 extracellular domain (Homo sapiens, UniProt P15391 20-291); test: flow cytometry on protein-coated beads; PBS, 37 C; PBS, 37 C, 30 min, three PBS washes; bead flow cytometry, random ssDNA pool as background; pH not stated; conditions: protein: commercial; label: FITC (flow cytometry); Cy3 (confocal); FITC at 5' end in selection primer
Sequence (P15391 20-291): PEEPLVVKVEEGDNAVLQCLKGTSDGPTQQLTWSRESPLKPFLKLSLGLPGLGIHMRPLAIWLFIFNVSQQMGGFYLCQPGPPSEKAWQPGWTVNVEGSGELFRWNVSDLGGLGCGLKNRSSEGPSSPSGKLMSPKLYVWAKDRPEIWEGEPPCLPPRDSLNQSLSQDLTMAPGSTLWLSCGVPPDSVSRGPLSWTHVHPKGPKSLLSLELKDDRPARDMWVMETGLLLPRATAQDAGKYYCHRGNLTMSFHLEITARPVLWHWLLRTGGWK
Assay readout: Kd (nM)
Use nM as the unit, but write only the number.

Input line: Look up Kd for this binder: LC1 (ssDNA) DNA: TGCGTGTGTAGTGTGTCTGTTCTCCTTTTTTTGGTTGCTGCTCTTAGGGATTTGGGCGG
Output line: 85.4
